Biological target: T1, Gal4 transcriptional activation domain (AD) fused in frame with AR (pGAD-C2) (yeast, UniProt P10275 1-920, limits assumed)
T1 sequence (looked up): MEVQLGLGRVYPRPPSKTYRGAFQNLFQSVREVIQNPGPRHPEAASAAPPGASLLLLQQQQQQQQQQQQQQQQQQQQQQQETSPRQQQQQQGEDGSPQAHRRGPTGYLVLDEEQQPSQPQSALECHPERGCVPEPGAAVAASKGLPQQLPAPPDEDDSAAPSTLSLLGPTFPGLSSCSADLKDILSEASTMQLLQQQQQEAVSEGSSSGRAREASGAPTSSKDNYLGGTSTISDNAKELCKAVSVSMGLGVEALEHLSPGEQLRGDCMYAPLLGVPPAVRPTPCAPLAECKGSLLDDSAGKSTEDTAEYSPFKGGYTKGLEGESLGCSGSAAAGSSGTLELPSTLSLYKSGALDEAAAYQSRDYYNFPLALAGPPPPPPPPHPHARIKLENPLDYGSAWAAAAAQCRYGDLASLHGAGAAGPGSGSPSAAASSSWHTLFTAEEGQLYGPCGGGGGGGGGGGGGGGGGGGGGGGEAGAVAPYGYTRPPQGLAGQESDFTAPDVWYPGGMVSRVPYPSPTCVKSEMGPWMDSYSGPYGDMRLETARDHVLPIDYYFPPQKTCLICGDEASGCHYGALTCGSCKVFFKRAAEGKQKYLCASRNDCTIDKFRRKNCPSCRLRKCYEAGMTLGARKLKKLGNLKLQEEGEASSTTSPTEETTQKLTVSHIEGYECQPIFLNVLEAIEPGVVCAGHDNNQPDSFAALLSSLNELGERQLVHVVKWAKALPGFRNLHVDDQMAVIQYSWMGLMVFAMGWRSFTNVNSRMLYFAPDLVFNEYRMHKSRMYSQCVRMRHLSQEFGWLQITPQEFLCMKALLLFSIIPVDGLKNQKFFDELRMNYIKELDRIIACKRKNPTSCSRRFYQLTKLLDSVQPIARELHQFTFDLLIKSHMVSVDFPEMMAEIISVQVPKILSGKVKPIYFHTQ
Assay: cell-based or functional assay
For each entry below, report its β-galactosidase activity, yeast two-hybrid; No Lig value.
One number for each entry.

Some binders with known β-galactosidase activity, yeast two-hybrid; No Lig results, for comparison:
binder	obs.value
B8A10 (peptide) MKLLSSIEQACDICRLKKLKCSKEKPKCAKCLKNNWECRYSPKTKRSPLTRAHLTEVESRLERLEQLFLLIFPREDLDMILKMDSLQDIKALLTGLFVQDNVNKDAVTDRLASVETDMPLTLRQHRISATSSSEESSNKGQRQLTVSEFVNWDAVVPWSELVALLDLQPS	0.875
M2H3 (peptide) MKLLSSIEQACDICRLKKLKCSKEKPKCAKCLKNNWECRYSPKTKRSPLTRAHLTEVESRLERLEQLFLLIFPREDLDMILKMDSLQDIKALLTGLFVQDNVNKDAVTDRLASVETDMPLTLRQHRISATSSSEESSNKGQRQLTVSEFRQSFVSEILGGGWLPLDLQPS	2.53
B2A7 (peptide) MKLLSSIEQACDICRLKKLKCSKEKPKCAKCLKNNWECRYSPKTKRSPLTRAHLTEVESRLERLEQLFLLIFPREDLDMILKMDSLQDIKALLTGLFVQDNVNKDAVTDRLASVETDMPLTLRQHRISATSSSEESSNKGQRQLTVSEFPELLAMTRWGRHAALLEPQRLPPPRTTTQPQTEFERMFFFTRPMRTTGLLDLQPS	0.371

## Task Bench note: what β-galactosidase activity, yeast two-hybrid; No Lig did M4D1 (peptide) MKLLSSIEQACDICRLKKLKCSKEKPKCAKCLKNNWECRYSPKTKRSPLTRAHLTEVESRLERLEQLFLLIFPREDLDMILKMDSLQDIKALLTGLFVQDNVNKDAVTDRLASVETDMPLTLRQHRISATSSSEESSNKGQRQLTVSEFRFPFHEMVREWESMGLERVRYAEP show?
## Result 0
